test system: NIH3T3; assay: Antiproliferative activity against NIH3T3 cells at 10 uM after 72 hrs by MTT assay; assay type: functional, Mus musculus
Property: Activity (%)
Your answer is read as %, so omit the unit and give the number.

In the examples that follow, each entry is paired with its recorded Activity.
Compound	Activity (%)
O=C(N/N=C/c1ccc([N+](=O)[O-])o1)c1ccc(O)cc1 [NIFUROXAZIDE]	60.52
O=C(NNC(=O)c1ccc([N+](=O)[O-])o1)c1ccc(O)cc1	11.85
CN1CCN(CCCCCOc2ccc(C(=O)N/N=C/c3ccc([N+](=O)[O-])s3)cc2)CC1	82.37
CN(C)CCCCOc1ccc(C(=O)N/N=C/c2ccc([N+](=O)[O-])o2)cc1	82.27

Consider the record given below.
# input compound: CN1CCN(CCCCCCOc2ccc(C(=O)N/N=C/c3ccc([N+](=O)[O-])s3)cc2)CC1 ; wanted: its Activity
79.52

* * *

tested on: NIH3T3; experiment: Antiproliferative activity against NIH3T3 cells at 10 uM after 72 hrs by MTT assay; assay type: functional, Mus musculus
# Activity per entry
Your answer is read as %, so omit the unit and give the number.

# input molecule: O=C(N/N=C/c1ccc([N+](=O)[O-])o1)c1ccc(OCCCCN2CCCCC2)cc1 ; wanted: its Activity
83.93

# input molecule: CN1CCN(CCCCOc2ccc(C(=O)N/N=C/c3ccc([N+](=O)[O-])o3)cc2)CC1 ; wanted: its Activity
86.36

# input molecule: CN1CCN(CCCCOc2ccc(C(=O)N/N=C/c3ccc([N+](=O)[O-])s3)cc2)CC1 ; wanted: its Activity
85.92

# input molecule: Cc1cc(O)ccc1C(=O)N/N=C/c1ccc([N+](=O)[O-])o1 ; wanted: its Activity
27.62
